Assay: xn = mol fraction of the nth substance listed
Settings: 318.15 K; 101.32 kPa; Liquid; x1 = 0.0305
MEASURED ENDPOINT: mass density (kg/m3)

INSERT INTO measurements (compound, measured_endpoint, value_units, meas_value) VALUES
  ('COCCOCCOCCOC [2,5,8,11-tetraoxadodecane] + CCO', 'mass density', 'kg/m3', 786),
  ('COCCOCCOC [2,5,8-trioxanonane] + CCO', 'mass density', 'kg/m3', 779.2),
  ('COCCOCCOCCOCCOC [2,5,8,11,14-pentaoxapentadecane] + CCO', 'mass density', 'kg/m3', 793.1),
  ('COCCOC [1,2-dimethoxyethane] + CCO', 'mass density', 'kg/m3', 772);

* * *

Assay: refractive index (Na D-line) (dimensionless); xn = mol fraction of the nth substance listed
Conditions: 298.15 K; 101.32 kPa; Liquid; Standard Abbe refractometry; x1 = 0.7999
MEASURED ENDPOINT: refractive index

INSERT INTO assay_data (compound, meas_value) VALUES
  ('COCCOC [1,2-dimethoxyethane] + CCO', 1.3754),
  ('COCCOCCOCCOC [2,5,8,11-tetraoxadodecane] + CCO', 1.4167),
  ('COCCOCCOCCOCCOC [2,5,8,11,14-pentaoxapentadecane] + CCO', 1.4264),
  ('COCCOCCOC [2,5,8-trioxanonane] + CCO', 1.4018);

* * *

Assay: xn = mol fraction of the nth substance listed
Conditions: 288.15 K; 101.32 kPa; Liquid; x1 = 0.15
MEASURED ENDPOINT: mass density (kg/m3)

INSERT INTO assay_data (compound, value_units, meas_value) VALUES
  ('COCCOCCOCCOCCOC [2,5,8,11,14-pentaoxapentadecane] + CCO', 'kg/m3', 888),
  ('COCCOCCOCCOC [2,5,8,11-tetraoxadodecane] + CCO', 'kg/m3', 866.4),
  ('COCCOC [1,2-dimethoxyethane] + CCO', 'kg/m3', 814.2),
  ('COCCOCCOC [2,5,8-trioxanonane] + CCO', 'kg/m3', 842.6);

* * *

Assay: xn = mol fraction of the nth substance listed
Details: 308.15 K; 101.32 kPa; Liquid; x1 = 0.1
MEASURED ENDPOINT: mass density (kg/m3)

INSERT INTO measurements (compound, measured_endpoint, value_units, meas_value) VALUES
  ('COCCOCCOCCOCCOC [2,5,8,11,14-pentaoxapentadecane] + CCO', 'mass density', 'kg/m3', 846.2),
  ('COCCOCCOCCOC [2,5,8,11-tetraoxadodecane] + CCO', 'mass density', 'kg/m3', 828.8),
  ('COCCOC [1,2-dimethoxyethane] + CCO', 'mass density', 'kg/m3', 790),
  ('COCCOCCOC [2,5,8-trioxanonane] + CCO', 'mass density', 'kg/m3', 810.7);

* * *

Experiment: xn = mol fraction of the nth substance listed
Conditions: 298.15 K; 101.32 kPa; Liquid; x1 = 0.0045
MEASURED ENDPOINT: mass density (kg/m3)

INSERT INTO results (molecule, meas_value) VALUES
  ('COCCOCCOCCOCCOC [2,5,8,11,14-pentaoxapentadecane] + CCO', 789.4),
  ('COCCOCCOC [2,5,8-trioxanonane] + CCO', 787),
  ('COCCOC [1,2-dimethoxyethane] + CCO', 786),
  ('COCCOCCOCCOC [2,5,8,11-tetraoxadodecane] + CCO', 788.2);

* * *

Test: xn = mol fraction of the nth substance listed
Settings: 318.15 K; 101.32 kPa; Liquid; x1 = 0.55
MEASURED ENDPOINT: mass density (kg/m3)

INSERT INTO measurements (molecule, meas_value) VALUES
  ('COCCOCCOCCOCCOC [2,5,8,11,14-pentaoxapentadecane] + CCO', 952),
  ('COCCOCCOC [2,5,8-trioxanonane] + CCO', 882.6),
  ('COCCOCCOCCOC [2,5,8,11-tetraoxadodecane] + CCO', 922.9),
  ('COCCOC [1,2-dimethoxyethane] + CCO', 818.6);

* * *

Assay: refractive index (Na D-line) (dimensionless)
Settings: 298.15 K; 101.33 kPa; Liquid; Standard Abbe refractometry
MEASURED ENDPOINT: refractive index

INSERT INTO results (molecule, meas_value) VALUES
  ('CCO [ethanol]', 1.3591),
  ('COCCOC [1,2-dimethoxyethane]', 1.3772),
  ('COCCOCCOCCOCCOC [2,5,8,11,14-pentaoxapentadecane]', 1.4303),
  ('COCCOCCOC [2,5,8-trioxanonane]', 1.4058),
  ('COCCOCCOCCOC [2,5,8,11-tetraoxadodecane]', 1.4209);

* * *

Experiment: xn = mol fraction of the nth substance listed
Conditions: 288.15 K; 101.32 kPa; Liquid; x1 = 0.0305
MEASURED ENDPOINT: mass density (kg/m3)

INSERT INTO measurements (compound, meas_value) VALUES
  ('COCCOCCOC [2,5,8-trioxanonane] + CCO', 805.5),
  ('COCCOCCOCCOC [2,5,8,11-tetraoxadodecane] + CCO', 812.4),
  ('COCCOCCOCCOCCOC [2,5,8,11,14-pentaoxapentadecane] + CCO', 819.5),
  ('COCCOC [1,2-dimethoxyethane] + CCO', 798.5);

* * *

Experiment: xn = mol fraction of the nth substance listed
Details: 308.15 K; 101.32 kPa; Liquid; x1 = 0.15
MEASURED ENDPOINT: mass density (kg/m3)

INSERT INTO measurements (compound, value_units, meas_value) VALUES
  ('COCCOCCOC [2,5,8-trioxanonane] + CCO', 'kg/m3', 824.5),
  ('COCCOCCOCCOC [2,5,8,11-tetraoxadodecane] + CCO', 'kg/m3', 848.3),
  ('COCCOC [1,2-dimethoxyethane] + CCO', 'kg/m3', 795.8),
  ('COCCOCCOCCOCCOC [2,5,8,11,14-pentaoxapentadecane] + CCO', 'kg/m3', 869.9);

* * *

Experiment: refractive index (Na D-line) (dimensionless); xn = mol fraction of the nth substance listed
Settings: 288.15 K; 101.32 kPa; Liquid; Standard Abbe refractometry; x1 = 0.25
MEASURED ENDPOINT: refractive index

INSERT INTO assay_data (compound, meas_value) VALUES
  ('COCCOCCOCCOCCOC [2,5,8,11,14-pentaoxapentadecane] + CCO', 1.405),
  ('COCCOCCOC [2,5,8-trioxanonane] + CCO', 1.3851),
  ('COCCOCCOCCOC [2,5,8,11-tetraoxadodecane] + CCO', 1.396),
  ('COCCOC [1,2-dimethoxyethane] + CCO', 1.3709);

* * *

Assay: refractive index (Na D-line) (dimensionless); xn = mol fraction of the nth substance listed
Details: 298.15 K; 101.32 kPa; Liquid; Standard Abbe refractometry; x1 = 0.2
MEASURED ENDPOINT: refractive index

INSERT INTO results (compound, meas_value) VALUES
  ('COCCOCCOCCOCCOC [2,5,8,11,14-pentaoxapentadecane] + CCO', 1.396),
  ('COCCOC [1,2-dimethoxyethane] + CCO', 1.3652),
  ('COCCOCCOCCOC [2,5,8,11-tetraoxadodecane] + CCO', 1.3875),
  ('COCCOCCOC [2,5,8-trioxanonane] + CCO', 1.3776);

* * *

Assay: refractive index (Na D-line) (dimensionless); xn = mol fraction of the nth substance listed
Settings: 288.15 K; 101.32 kPa; Liquid; Standard Abbe refractometry; x1 = 0.4
MEASURED ENDPOINT: refractive index

INSERT INTO results (compound, measured_endpoint, meas_value) VALUES
  ('COCCOC [1,2-dimethoxyethane] + CCO', 'refractive index', 1.3742),
  ('COCCOCCOCCOC [2,5,8,11-tetraoxadodecane] + CCO', 'refractive index', 1.4061),
  ('COCCOCCOC [2,5,8-trioxanonane] + CCO', 'refractive index', 1.3931),
  ('COCCOCCOCCOCCOC [2,5,8,11,14-pentaoxapentadecane] + CCO', 'refractive index', 1.4159);

* * *

Assay: refractive index (Na D-line) (dimensionless); xn = mol fraction of the nth substance listed
Settings: 288.15 K; 101.32 kPa; Liquid; Standard Abbe refractometry; x1 = 0.0205
MEASURED ENDPOINT: refractive index

INSERT INTO measurements (molecule, meas_value) VALUES
  ('COCCOCCOC [2,5,8-trioxanonane] + CCO', 1.3655),
  ('COCCOCCOCCOCCOC [2,5,8,11,14-pentaoxapentadecane] + CCO', 1.3689),
  ('COCCOCCOCCOC [2,5,8,11-tetraoxadodecane] + CCO', 1.3672),
  ('COCCOC [1,2-dimethoxyethane] + CCO', 1.3638);
